Tested on: TAB113
Assay: qHTS profiling for inhibitors of Plasmodium falciparum proliferation (AID 504749); also: nearly all actives have a fitted effect of over 60% in size
Settings: P. falciparum in erythrocytes, SYBR Green DNA, 72 h; series mostly up to 28.7 µM
Results filed as inconclusive are left out. Calls of active or inactive are those of the source. Calls follow the shape of the dose curve; as a rule, active = well fitted inhibition curve with a large enough effect; inconclusive = small, poorly fitted or top-dose-only effect; inactive = flat fitted curve, though single readings scatter.
Result category, one only: T = active, F = inactive

CCCCCCCCCCCCCCCCO
F
CC(C)=CCOc1ccc(/C=C/C(=O)c2ccc(OCC=C(C)C)cc2OCC(=O)O)cc1
F
OCc1ccccn1
F
CCc1oc2ccccc2c1C(=O)c1cc(Br)c(O)c(Br)c1
F

[in] How was CCCN(CCC)S(=O)(=O)c1ccc(C(=O)O)cc1 classified in this test?
[out] F

[in] Hi team, can someone confirm the assay call for CCc1oc2ccccc2c1C(=O)c1cc(I)c(O)c(I)c1 ?
[out] F

[in] What is the recorded call for this compound in the test? CCCCC(CC)COC(=O)/C=C/c1ccc(OC)cc1 (configuration not stated)
[out] F

[in] How did this test come out for O=C(O)C(Cc1cc(I)c(O)c(I)c1)c1ccccc1 (configuration not stated) ?
[out] F

[in] Could you kindly confirm the outcome this assay logged for C=C[C@@]1(C)CC(=O)[C@]2(O)[C@@]3(C)[C@@H](O)CCC(C)(C)[C@@H]3[C@H](O)[C@H](OC(C)=O)[C@@]2(C)O1 ?
[out] F

[in] Please state the recorded outcome for this compound: Nc1nc(-c2ccccc2)c(Br)c(=O)[nH]1
[out] F

[in] Record request — test call for c1ccc(CC2=NCCN2)cc1
[out] F

[in] Hello, I am checking results. What call was entered for NS(=O)(=O)c1cc(C(=O)O)cc(N2CCCC2)c1Oc1ccccc1 ?
[out] F

[in] Write down the call the test reported for this compound. Item: CN1CCN(c2c(F)cc3c(=O)c(C(=O)O)cn4c3c2SCC4)CC1
[out] F

[in] Write down the call the test reported for this compound. Item: CC1=C(C(=O)O)N2C(=O)[C@@H](NC(=O)[C@H](N)c3ccccc3)[C@H]2SC1
[out] F

[in] What is the recorded call for this compound in the test? O=C1C(O)=C(O)C(=O)C(O)=C1O
[out] F

[in] Test call, this compound: O=C(O)Cc1csc(-c2ccc(Cl)cc2)n1
[out] F

[in] # lookup: test call for CCCCCCCCCCCCCC[N+](C)(C)Cc1ccccc1
[out] T

[in] What call does the record list for O=C(O)CCNC(=O)c1ccccc1 ?
[out] F

[in] Name the outcome recorded for O=C(O)c1ccc(S(=O)(=O)N(Cl)Cl)cc1 in the assay.
[out] F

[in] Identify the outcome logged in this assay for the compound shown: Nc1nc(N)c(-c2ccccc2)s1
[out] F

[in] Fill in: this test's call for CC(=O)NC(=O)c1ccccc1O is ___
[out] F

[in] Record lookup: outcome of this test for CCN(CC)CCOC(=O)C1(c2ccccc2)CCCC1 ?
[out] T

----------
Test system: CP192
Assay: qHTS profiling for inhibitors of Plasmodium falciparum proliferation (AID 504749); also: nearly all actives have a fitted effect of over 60% in size
Settings: P. falciparum in erythrocytes, SYBR Green DNA, 72 h; series mostly up to 28.7 µM
Records with an inconclusive call do not appear. Calls of active or inactive are those of the source. Calls come from the whole dose curve; as a rule, active = well fitted inhibition curve with a large enough effect; inconclusive = small, poorly fitted or top-dose-only effect; inactive = flat fitted curve, though single readings scatter.
Just give me one of these, please: class 1 for active, class 0 for inactive

# count of solved cases: 4
Cc1ccc(O)c([C@H](CCN(C(C)C)C(C)C)c2ccccc2)c1
class 1
O=C(O)C(Cc1cc(I)c(O)c(I)c1)c1ccccc1 (stereo not drawn)
class 0
O=C(Nc1ncc([N+](=O)[O-])s1)c1cccs1
class 0
Cc1cccc(C)c1NC(=O)CN1CCCCCC1
class 0

[in] How did this test come out for NC(=O)n1c(O)c(C(=O)c2cccs2)c2cc(Cl)ccc21 ?
[out] class 0

[in] # fetch the recorded call for COc1cc(O)c(C(=O)c2ccccc2)cc1S(=O)(=O)O here
[out] class 0

[in] Dear all, I need the recorded test outcome for CCNC(=O)NCc1cccc(Cl)c1 , thank you.
[out] class 0

[in] # outcome recorded in this test, key = O=C(O)c1ccc(S(=O)(=O)N(Cl)Cl)cc1
[out] class 0

[in] What is the recorded call for this molecule in the test? CC(=O)NO
[out] class 0

[in] Record request — test call for CCCCCCCC/C=C\CCCCCCCCN
[out] class 0

[in] Hi, sorry to bother you, what did the test record for CCC1Nc2cc(Cl)c(S(N)(=O)=O)cc2S(=O)(=O)N1 (stereo not drawn) ?
[out] class 0

[in] Tell me the recorded outcome of this test for CC(C)Cn1cnc2c1c(=O)n(C)c(=O)n2C .
[out] class 0

[in] Which outcome was assigned to O=C(Nc1cccc(C2=NCCN2)c1)Nc1cccc(C2=NCCN2)c1 in this test?
[out] class 1
